System Name: T1, EsCas13d, nuclease-dead (Eubacterium siraeum, UniProt B0MS50, R295A;H300A;R849A;H854A)
T1 sequence: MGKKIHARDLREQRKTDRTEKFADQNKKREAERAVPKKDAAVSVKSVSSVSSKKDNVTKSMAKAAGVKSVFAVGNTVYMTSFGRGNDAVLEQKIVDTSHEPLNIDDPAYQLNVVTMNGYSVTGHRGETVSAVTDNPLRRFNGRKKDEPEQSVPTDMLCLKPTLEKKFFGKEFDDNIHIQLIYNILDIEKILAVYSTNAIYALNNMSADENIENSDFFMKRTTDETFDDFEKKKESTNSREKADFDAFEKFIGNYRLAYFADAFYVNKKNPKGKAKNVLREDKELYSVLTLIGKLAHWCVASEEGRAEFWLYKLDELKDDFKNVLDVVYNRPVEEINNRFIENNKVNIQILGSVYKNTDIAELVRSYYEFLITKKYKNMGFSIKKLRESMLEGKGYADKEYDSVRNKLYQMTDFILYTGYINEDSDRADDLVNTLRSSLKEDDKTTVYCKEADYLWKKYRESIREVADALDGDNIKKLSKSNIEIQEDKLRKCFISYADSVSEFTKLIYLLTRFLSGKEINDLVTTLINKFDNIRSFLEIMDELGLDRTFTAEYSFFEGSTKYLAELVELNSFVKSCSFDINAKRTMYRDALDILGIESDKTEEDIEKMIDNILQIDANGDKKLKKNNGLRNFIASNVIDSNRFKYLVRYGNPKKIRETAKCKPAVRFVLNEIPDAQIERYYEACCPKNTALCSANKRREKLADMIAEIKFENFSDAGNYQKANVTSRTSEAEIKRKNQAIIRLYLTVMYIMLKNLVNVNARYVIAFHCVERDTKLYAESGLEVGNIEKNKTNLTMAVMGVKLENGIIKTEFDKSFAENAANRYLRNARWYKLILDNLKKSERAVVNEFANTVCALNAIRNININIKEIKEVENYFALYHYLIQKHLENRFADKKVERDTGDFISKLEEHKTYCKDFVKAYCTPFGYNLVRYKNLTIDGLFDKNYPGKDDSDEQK
Method Summary: crRNA (strand 1, pre-loaded); Mg2+; 40 mM Tris-HCl pH 7.5, 150 mM NaCl, 6 mM MgCl2, 1 mM DTT, 0.1% Tween-20, 0.2 mg/ml BSA; 25 C; 10 min per concentration, then washed
Experimental Conditions: tags: His6-TwinStrep-SUMO cleaved; N-terminal SNAP kept (SNAP-Surface 488); label: 3' end held by stalled T7 RNA polymerase

[
  {
    "Binder": "target 1 C4G,U11A (mixed) RNA 1: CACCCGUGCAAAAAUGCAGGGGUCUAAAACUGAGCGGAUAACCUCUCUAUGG RNA 2: GGGAAUGGAUCCACAUCUACGAAUUCGUACCAUAGAGAGGAUAUCCGGUCACCGAGAUCGGAAGAGCACACGU",
    "Output Unit": "nM",
    "Kd": 9
  },
  {
    "Binder": "target 2 MT 5'PFS CUU 3'PFS AUG (mixed) RNA 1: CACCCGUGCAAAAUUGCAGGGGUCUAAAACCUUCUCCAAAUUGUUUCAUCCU RNA 2: GGGAAUGGAUCCACAUCUACGAAUUCCUUAGGAUGAAACAAUUUGGAGAAGAUGAGAUCGGAAGAGCACACGU",
    "Output Unit": "nM",
    "Kd": 4.1
  },
  {
    "Binder": "target 3 insA 3' of 21,insG 3' of 6 (mixed) RNA 1: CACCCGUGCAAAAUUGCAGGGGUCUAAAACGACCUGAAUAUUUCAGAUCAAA RNA 2: GGGAAUGGAUCCACAUCUACGAAUUCGUUUUAUGAUCUGAAAUAUUCGAGGUCUGCAGAUCGGAAGAGCACACGU",
    "Output Unit": "nM",
    "Kd": 48.5
  },
  {
    "Binder": "target 2 MT 5'PFS AAG 3'PFS AGG (mixed) RNA 1: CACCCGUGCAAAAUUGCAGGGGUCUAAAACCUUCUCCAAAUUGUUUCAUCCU RNA 2: GGGAAUGGAUCCACAUCUACGAAUUCAAGAGGAUGAAACAAUUUGGAGAAGAGGAGAUCGGAAGAGCACACGU",
    "Output Unit": "nM",
    "Kd": 5.7
  }
]
